AC50 cell viability values, listed per item
test system: HCT116; assay: AC50 cell viability (CellTiter-Glo); higher = less potent; conditions: 48 h
Only the number, expressed in µM, is required.

Example entries and their recorded answers appear below.
- N=C(N)c1ccc(OCCCCCOc2ccc(C(=N)N)cc2)cc1 [Pentamidine isethionate]: 20.9
- O=C(Nc1ccccc1-c1cn2c(CN3CCNCC3)csc2n1)c1cnc2ccccc2n1: 7.42
- COC1=CC=C(C=C1)C2=NC3=CC(=CC=C3[NH]2)/C4=N/NC(=O)CC4C (stereo not drawn): 9.34
- O=C(CCCCCCC(=O)N/N=C/c1ccc(N(c2ccccc2)c2ccccc2)cc1)NO: 2.09
- [O-]C(=O)C1=C(C(=C(Cl)C(=C1Cl)Cl)Cl)C/2=C/3\C=C(I)/C(=O)/C(=C3OC4=C2C=C(I)C(=C4I)[O-])I [Rose Bengal disodium]: 16.6

Identify AC50 cell viability associated with the compound CN(C)c1ccc(C(=O)NCCCCCCC(=O)NO)cc1 0.742

Item COCCNCc1ccc(-c2cc3nccc(Oc4ccc(NC(=O)C5(C(=O)Nc6ccc(F)cc6)CC5)cc4F)c3s2)nc1 : provide AC50 cell viability 6.61

Consider the compound CNC(=O)c1c(F)cccc1Nc1nc(Nc2cc3c(cc2OC)CCN3C(=O)CN(C)C)nc2[nH]ccc12 and give its recorded AC50 cell viability. 5.25

* * *

tested on: HCT116; test: efficacy (fitted maximal change in viability relative to DMSO control); higher = less cytotoxic (negative = loss of viability); settings: 48 h
Criterion: efficacy meeting or surpassing -80%. Met: Condition met. Not met: Condition not met.

Does the compound O=C(Nc1ccc([N+](=O)[O-])cc1Cl)c1cc(Cl)ccc1O [Niclosamide] have recorded efficacy that is -80% or more? Condition not met

Does the reported efficacy for CC[C@H]1OC(=O)[C@H](C)[C@@H](O[C@H]2C[C@@](C)(OC)[C@@H](O)[C@H](C)O2)[C@H](C)[C@@H](O[C@@H]2O[C@H](C)C[C@H](N(C)C)[C@H]2O)[C@](C)(O)C[C@@H](C)C(=O)[C@H](C)[C@@H](O)[C@]1(C)O fall at or above the -80% mark? Condition met

* * *

tested on: HCT116; assay: efficacy (fitted maximal change in viability relative to DMSO control); higher = less cytotoxic (negative = loss of viability); details: 48 h
Structures can show the parent of a compound that is named as a salt.
Lab note: compare efficacy against -70%. Equal or greater, write MET. Smaller, write NOT MET.

Solved entries:
* COc1cc(CCc2cc(NC(=O)c3ccc(N4C[C@@H](C)N[C@@H](C)C4)cc3)n[nH]2)cc(OC)c1 | NOT MET
* COc1ccc([S+](=O)([O-])N(C(C)=O)c2ccccc2/C=C/c2cc[n+]([O-])cc2)cc1 | MET
* O=C1NC(O)CCN1[C@@H]1O[C@H](CO)[C@@H](O)[C@H]1O (some centres not stated) [Tetrahydrouridine] | MET
* CCN[C@H]1C[C@H](C)[S+](=O)([O-])c2sc([S+](N)(=O)[O-])cc21 [Dorzolamide hydrochloride] | MET
* CCCC[C@@H](C=O)NC(=O)[C@H](CC(C)C)NC(=O)OCc1ccccc1 | MET
* CC[S+]([O-])(=O)NC1=CC(=C(OC2=C(F)C=C(F)C=C2)C=C1)\C3=C\N(C)C(=O)C4=C3C=C[NH]4 | NOT MET
* COC1=C(OCCCN2CCOCC2)C=C3N=CC=C(OC4=CC=C(C=C4F)\C5=C\N=C(\NC6=CC=C(F)C=C6)N(C)C5=O)C3=C1 | NOT MET
* Cc1ccc(C(=O)Nc2cccc(C(F)(F)F)c2)cc1-c1ccc2nc(NCCN3CCOCC3)ncc2c1 [AMG-47a] | NOT MET

For this molecule, is measured efficacy -70% or higher? C[C@H]1CC[C@H](n2c3cnccc3c3cnc(Nc4ccc5c(n4)CCN(C(=O)CO)C5)nc32)CC1 MET

Decide: is the reported value of efficacy for NC(=O)Nc1sc(-c2ccc(F)cc2)cc1C(N)=O equal to or greater than -70%? NOT MET
